# targetSystem: Human BCL-XL protein (N-terminal HiBiT tagged BCL-XL in HT1080 cells) (Homo sapiens)
# Construct: expressed in transfected cells; host or cells: HT-1080 (ATCC CCL-121), stably transduced with lentivirus pLV-UBC-N-HiBiT-BCL-XL-PGK-puro and selected with puromycin
# Sequence (Q07817 whole entry): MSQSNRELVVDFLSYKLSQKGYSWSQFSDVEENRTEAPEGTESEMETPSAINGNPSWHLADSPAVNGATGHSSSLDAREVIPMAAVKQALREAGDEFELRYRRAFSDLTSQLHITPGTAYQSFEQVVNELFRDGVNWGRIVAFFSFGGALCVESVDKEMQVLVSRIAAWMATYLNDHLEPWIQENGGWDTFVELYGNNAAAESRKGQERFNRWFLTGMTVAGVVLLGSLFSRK
# assayText: HiBiT based degradation assay
# Format: cell-based
# testSettings: BCL-XL degradation normalized with DMSO control; HT1080 cells expressing HiBiT-BCL-XL; 24 h
experimentalReadout: Ymin (24 h)

Request: Identify the measured Ymin (24 h) of Cc1c(CCCCC2CCN(CC(=O)Nc3ccc4c(C5CCC(=O)NC5=O)nn(C)c4c3)CC2)cccc1-c1ccc(N2CCc3cccc(C(=O)Nc4nc5ccccc5s4)c3C2)nc1C(=O)O (stereo not drawn) for Human BCL-XL protein (N-terminal HiBiT tagged BCL-XL in HT1080 cells) (Homo sapiens).
Result: A (Ymin < 50%)

Request: Likewise for Cc1c(O[C@H]2CC[C@H](CCCCN3CCN(c4ccc5c(C6CCC(=O)NC6=O)nn(C)c5c4)[C@@H](C)C3)CC2)cccc1-c1ccc(N2CCc3cccc(C(=O)Nc4nc5ccccc5s4)c3C2)nc1C(=O)O (stereo partly drawn) [Compound 300b] ?
Result: A (Ymin < 50%)

Request: Likewise for Cc1cc(O[C@@H](C)CCC2CCN(CC(=O)Nc3ccc4c(C5CCC(=O)NC5=O)nn(C)c4c3)CC2)ccc1-c1ccc(N2CCc3cccc(C(=O)Nc4nc5ccccc5s4)c3C2)nc1C(=O)O (stereo in doubt) [Compound 276b] ?
Result: A (Ymin < 50%)

Request: Likewise for Cc1c(O[C@H]2CC[C@@H](CCC(=O)N3CCN(c4ccc5c(C6CCC(=O)NC6=O)nn(C)c5c4)CC3)CC2)cccc1-c1ccc(N2CCc3cccc(C(=O)Nc4nc5ccccc5s4)c3C2)nc1C(=O)O (stereo partly drawn) [Compound 138b] ?
Result: B (50% ≤ Ymin < 70%)

Request: Likewise for Cc1c(O[C@H](C)CCC2CCN(CC(=O)Nc3cccc4c(C5CCC(=O)NC5=O)nn(C)c34)CC2)cccc1-c1ccc(N2CCc3cccc(C(=O)Nc4nc5ccccc5s4)c3C2)nc1C(=O)O (stereo partly drawn) [Compound 169b] ?
Result: B (50% ≤ Ymin < 70%)

Request: Likewise for Cn1nc(C2CCC(=O)NC2=O)c2ccc(N3CCN(CCCC[C@H]4CC[C@H](Oc5cccc(-c6ccc(N7CCc8cccc(C(=O)Nc9nc%10ccccc%10s9)c8C7)nc6C(=O)O)c5C(F)(F)F)CC4)CC3)cc21 (stereo partly drawn) [Compound 319a] ?
Result: A (Ymin < 50%)

Request: Likewise for Cc1c(Oc2ccc(CCN3CCN(c4ccc5c(C6CCC(=O)NC6=O)nn(C)c5c4)CC3)cc2)cccc1-c1ccc(N2CCc3cccc(C(=O)Nc4nc5ccccc5s4)c3C2)nc1C(=O)O (stereo not drawn) ?
Result: A (Ymin < 50%)

Request: Likewise for Cc1c(O[C@H]2CC[C@H](CCCC3CCN(c4ccc5c(C6CCC(=O)NC6=O)nn(C)c5c4)CC3)CC2)cccc1-c1ccc(N2CCc3cccc(C(=O)Nc4nc5ccccc5s4)c3C2)nc1C(=O)O (stereo partly drawn) [Compound 311b] ?
Result: B (50% ≤ Ymin < 70%)

Now for the compound whose Ymin (24 h) we want.
Request: Identify the measured Ymin (24 h) of Cc1c(O[C@H]2CC[C@H](CCC[C@@H](C)N3CCN(c4ccc5c(C6CCC(=O)NC6=O)nn(C)c5c4)CC3)CC2)cccc1-c1ccc(N2CCc3cccc(C(=O)Nc4nc5ccccc5s4)c3C2)nc1C(=O)O (single isomer, unassigned) [Compound 333b] for Human BCL-XL protein (N-terminal HiBiT tagged BCL-XL in HT1080 cells) (Homo sapiens).
Result: A (Ymin < 50%)
